measuredTarget: Glucose transporter (Leishmania mexicana) (UniProt O61059)
assayOverview: ST_JUDE_LEISH: Cytotoxicity at 2uM final concentration against transgenic Leishmania Mexicana promastigotes LmGT2 that are glucose transport deficient and complemented with the L. Mexicana glucose transporter 2. Activity is measured by DNA content using SYBR green in vitro
Type: functional
experimentalEndpoint: inhibition (%)
Give the number; % is assumed, so skip it.

Problem: Recorded inhibition of "CCCNCc1ccc(-c2ccc(CN(CCOC)C(=O)c3cnc(C)cn3)cc2)nc1" , please.
Solution: 0.24

Problem: One more compound: "Cc1nc(-c2nc(NCc3ccccn3)ncc2-c2ccsc2)sc1C"
Solution: 5.82

Problem: One more compound: CN(C)CC1CCCN1Cc1ccccc1-c1cnn(C)c(=O)c1Oc1ccc(F)cc1 (stereo not drawn)
Solution: 4.45

Problem: One more compound: "CC(C)(C)NC(=O)COC(=O)c1c2c(nc3ccccc13)C(=Cc1ccc3c(c1)OCO3)CCC2"
Solution: 0.48

Problem: One more compound: "COc1cc(OC)cc(C(=O)Nc2ccc(Nc3nc(C)cc(N(C)C)n3)cc2)c1"
Solution: 6.54

Problem: One more compound: COc1ccc2ncc(F)c(CCN3C4CCC3CC(NCc3ccc5c(c3)OCCO5)C4)c2n1 (stereo not drawn)
Solution: 79.2

Problem: One more compound: "COc1cc2c(cc1C(F)(F)F)N(C(=O)Nc1cc(OC(F)(F)F)cc(-c3cccnc3)c1)CC2"
Solution: -0.44

Problem: One more compound: "CCn1c(-c2nonc2N)nc2c(-c3cccc(NC(=O)NC45CC6CC(CC(C6)C4)C5)c3)ncc(OCCCN)c21"
Solution: 2.53

Problem: One more compound: "COc1ccc2ncc(F)c([C@H](O)CN3CCC(NCc4ccc5c(c4)NC(=O)CO5)CC3)c2c1"
Solution: 1.56

Problem: One more compound: "Cc1cccc(-c2nn(-c3ccccc3)cc2C(=O)Nc2nnc(C)o2)c1"
Solution: 2.67

Problem: One more compound: "CC1(C)CCNc2cc(NC(=O)c3ccc(-c4ncccc4C(F)(F)F)cc3)ccc21"
Solution: 0.73

Problem: One more compound: "Nc1nc(F)nc2nc[nH]c12"
Solution: 22

Problem: One more compound: "Cc1nc2c(Nc3nc(-c4ccncc4)cs3)ncnc2n1-c1ccccc1Cl"
Solution: 13.4

Problem: One more compound: "COc1cc(Cc2cnc(N)nc2N)cc(OC(C)C)c1OC"
Solution: -0.54

Problem: One more compound: "O=C(/C=C/c1ccc(Cl)c(Cl)c1)NCCCCCN1CCC(NC(=S)Nc2ccc(Cl)cc2Cl)CC1"
Solution: 7.71

Problem: One more compound: "COc1cc2nc(N3CCC(CNC(=O)c4ccc(C(C)=O)cc4)CC3)nc(N)c2cc1OC"
Solution: 3.9

Problem: One more compound: "COc1ccc2c(c1)OC(C)(C)CC2=NOS(=O)(=O)c1ccc(C)cc1"
Solution: 2

Problem: One more compound: CN(C)Cc1cccc(-c2ccc(Nc3nccc(NCC(O)c4ccccc4)n3)cc2)c1 (stereo not drawn)
Solution: 3.53

Problem: One more compound: COc1ccc(OC)c2c1CCN(C)C2Cc1cccc2ccccc12 (stereo not drawn)
Solution: 1.61

Problem: One more compound: "Cc1ccc(C(=O)Nc2ccc(-c3nc4ccccc4[nH]3)cc2)cc1S(=O)(=O)N1CCOCC1"
Solution: 0.77

Problem: One more compound: "CN1CCN(c2ccc(CNc3ccc4ncc(-c5cccc(OC(F)(F)F)c5)n4n3)cc2)CC1"
Solution: -2.5

src = ChEMBL document CHEMBL3433997
